Provide the recorded inhibition at 10 µM for the entries that follow.
target: panel of 203 kinases (Homo sapiens, UniProt P36894); construct: purchased DiscoverX (KINOMEscan); assay: KINOMEscan competitive binding, whole panel; details: 10 µM, n=1; kinase BMPR1A; read-out: Percent inhibition BMPR1A
Sequence (P36894 24-532): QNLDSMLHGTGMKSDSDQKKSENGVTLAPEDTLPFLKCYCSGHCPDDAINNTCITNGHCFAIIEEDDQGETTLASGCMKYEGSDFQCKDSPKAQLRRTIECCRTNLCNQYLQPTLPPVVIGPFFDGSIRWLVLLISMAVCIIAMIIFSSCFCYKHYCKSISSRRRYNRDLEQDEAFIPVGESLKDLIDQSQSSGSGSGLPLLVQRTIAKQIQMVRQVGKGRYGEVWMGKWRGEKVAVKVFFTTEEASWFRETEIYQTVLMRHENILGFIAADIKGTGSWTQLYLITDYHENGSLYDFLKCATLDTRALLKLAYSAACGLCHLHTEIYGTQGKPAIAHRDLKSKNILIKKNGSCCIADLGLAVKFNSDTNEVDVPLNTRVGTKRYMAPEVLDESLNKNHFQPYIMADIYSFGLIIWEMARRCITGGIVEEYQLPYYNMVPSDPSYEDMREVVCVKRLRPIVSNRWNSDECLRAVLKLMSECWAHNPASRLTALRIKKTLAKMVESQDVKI
One number for each entry, in %.

Cc1ccc(O)cc1N(C)c1ccnc(Nc2cccc(S(N)(=O)=O)c2)n1 : 97
Clc1ccc(Nc2ncc(-c3ccccc3)s2)cc1 : 0
c1ccc(COc2cccc(-c3ccnc4[nH]ccc34)c2)cc1 : 0

For every item below, please supply its inhibition at 10 µM.
1. COc1cc(Nc2nccc(-c3sc(N)nc3-c3cccc(NC(=O)c4c(F)cccc4F)c3)n2)cc(OC)c1OC
2. CN1CCN(c2ccc(Nc3nccc(-c4cnn5ncccc45)n3)cc2C#N)CC1
3. Fc1cccc(COc2ccc(Nc3ncnc4c3CN(CCN3CCOCC3)CC4)cc2Cl)c1
4. Nc1ncc2c(-c3ccncc3)c[nH]c2n1

Result ::
1. 0
2. 0
3. 0
4. 0

Field: inhibition at 10 µM. Fill in for each record below.
1. C[C@@H](Oc1cc(-c2cnc3ccccn23)sc1C(N)=O)c1ccccc1Cl
2. COc1ccc(Nc2nccc(-c3cnn4ncccc34)n2)cc1

Result ::
[0, 0]

Query :: Under panel of 203 kinases (Homo sapiens, UniProt P36894): inhibition at 10 µM value of Cc1ccc(O)cc1Nc1ccnc(Nc2cccc(C(N)=O)c2)n1 ?
Result :: 99.2

###

target: CSNK2A1 (Homo sapiens, UniProt P68400); construct: purchased DiscoverX (KINOMEscan); assay: KINOMEscan competitive binding; settings: 10 µM, n=1; kinase CSNK2A1; read-out: Percent inhibition CSNK2A1
Sequence (P68400 whole entry): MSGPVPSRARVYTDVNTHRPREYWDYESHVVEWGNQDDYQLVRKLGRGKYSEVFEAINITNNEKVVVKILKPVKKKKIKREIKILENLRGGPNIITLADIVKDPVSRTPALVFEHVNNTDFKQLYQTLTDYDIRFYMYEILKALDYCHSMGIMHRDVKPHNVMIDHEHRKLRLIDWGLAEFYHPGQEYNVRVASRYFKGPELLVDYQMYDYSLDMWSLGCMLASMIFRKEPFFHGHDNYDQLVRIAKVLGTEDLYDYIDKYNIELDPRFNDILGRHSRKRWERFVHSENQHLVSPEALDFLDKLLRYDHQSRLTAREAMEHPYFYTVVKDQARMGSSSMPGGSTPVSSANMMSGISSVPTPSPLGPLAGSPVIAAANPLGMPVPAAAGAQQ
observedProperty: inhibition at 10 µM (%)
Give bare numbers, in %.

Examples with their reported inhibition at 10 µM follow.
c1ccc(COc2cccc(-c3ccnc4[nH]ccc34)c2)cc1 [Compound 9] : 100
C[C@@H](Oc1cc(-c2cnc3ccccn23)sc1C(N)=O)c1ccccc1Cl [Compound 8] : 94.6
COc1cc(Nc2nccc(-c3sc(N)nc3-c3cccc(NC(=O)c4c(F)cccc4F)c3)n2)cc(OC)c1OC [Compound 7] : 0
COc1ccc(Nc2nccc(-c3cnn4ncccc34)n2)cc1 [Compound 2] : 82

Moving on to another compound below.
Query :: Given Nc1ncc2c(-c3ccncc3)c[nH]c2n1 [Compound 11] , state its recorded inhibition at 10 µM.
Result :: 0

###

biological target: panel of 203 kinases (Homo sapiens, UniProt Q13043); construct: purchased DiscoverX (KINOMEscan); assay: KINOMEscan competitive binding, whole panel; settings: 10 µM, n=1; kinase MST1; read-out: Percent inhibition MST1
Sequence (Q13043 whole entry): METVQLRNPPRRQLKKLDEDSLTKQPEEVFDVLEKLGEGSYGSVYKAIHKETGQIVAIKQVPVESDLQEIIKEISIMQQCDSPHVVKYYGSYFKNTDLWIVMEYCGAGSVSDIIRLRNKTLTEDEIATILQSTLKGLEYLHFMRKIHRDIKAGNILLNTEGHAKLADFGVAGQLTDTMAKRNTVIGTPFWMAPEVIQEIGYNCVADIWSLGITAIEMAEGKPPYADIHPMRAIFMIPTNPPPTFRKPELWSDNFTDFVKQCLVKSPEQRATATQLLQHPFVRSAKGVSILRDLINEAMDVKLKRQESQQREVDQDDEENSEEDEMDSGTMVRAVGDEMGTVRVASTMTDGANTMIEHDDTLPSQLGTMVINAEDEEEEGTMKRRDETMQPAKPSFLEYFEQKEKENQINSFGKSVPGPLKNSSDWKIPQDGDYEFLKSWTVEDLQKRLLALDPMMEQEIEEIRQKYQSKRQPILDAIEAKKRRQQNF
observedProperty: inhibition at 10 µM (%)
Give bare numbers, in %.

Past entries and their recorded results:
Clc1ccc(Nc2ncc(-c3ccccc3)s2)cc1 : 0
Nc1ncc2c(-c3ccncc3)c[nH]c2n1 : 0
C[C@@H](Oc1cc(-c2cnc3ccccn23)sc1C(N)=O)c1ccccc1Cl : 0
Cc1ccc(O)cc1N(C)c1ccnc(Nc2cccc(S(N)(=O)=O)c2)n1 : 0
CN1CCN(c2ccc(Nc3nccc(-c4cnn5ncccc45)n3)cc2C#N)CC1 : 99.3
Cc1ccc(O)cc1Nc1ccnc(Nc2cccc(C(N)=O)c2)n1 : 0
c1ccc(COc2cccc(-c3ccnc4[nH]ccc34)c2)cc1 : 0
Fc1cccc(COc2ccc(Nc3ncnc4c3CN(CCN3CCOCC3)CC4)cc2Cl)c1 : 0
COc1ccc(Nc2nccc(-c3cnn4ncccc34)n2)cc1 : 0

Continue with the molecule presented below.
Query :: # inhibition at 10 µM lookup, item COc1cc(Nc2nccc(-c3sc(N)nc3-c3cccc(NC(=O)c4c(F)cccc4F)c3)n2)cc(OC)c1OC
Result :: 97.4
